test_context: buffer; pH 7.4; 200.0 µM
Tick Satisfied if solubility kinetic is 3 µg/mL or greater. Tick Not satisfied if solubility kinetic is less than 3 µg/mL.

[
  {
    "compound": "CCc1nc2ccccc2n1CC1CC1(Cl)Cl (centres undefined)",
    "group": "Satisfied"
  }
]

Hi, just wondering whether COCCN1C(=O)NC(=O)/C(=C\c2ccc(F)cc2)C1=O shows solubility kinetic of 3 µg/mL or higher.
Satisfied

Is solubility kinetic for Cc1cccc(/C=C(\C(=O)O)c2ccc(S(=O)(=O)N3CCCC3)s2)c1 at or above 3 µg/mL?
Satisfied

Does solubility kinetic meet or surpass 3 µg/mL for COc1ccc(OCC(O)CN2CC(C)OC(C)C2)cc1.Cl (centres undefined) ?
Satisfied

Given O=C(CCNC(=O)c1ccccc1Cl)NCc1cccnc1 , state whether its solubility kinetic is at least 3 µg/mL.
Satisfied

Say whether Cc1ccccc1C1CCCN(Cc2nc(CC3CC3)no2)C1 (centres undefined) shows solubility kinetic of 3 µg/mL or more.
Satisfied

Test whether the compound O=C(Nc1ccc(S(=O)(=O)N2CCOCC2)cc1)C1CC1 records solubility kinetic of 3 µg/mL or higher.
Satisfied

Exam item: decide whether the reported solubility kinetic for CC(=O)c1c(C)[nH]c(C(=O)Nc2cccc(C)c2C)c1C is at least 3 µg/mL.
Not satisfied

Has O=C(O)CN1CCCCCC1=O a recorded solubility kinetic greater than or equal to 3 µg/mL?
Satisfied

Given the entry COc1ccc(OCCSc2nc(C)nc3ccccc23)cc1 , answer whether its solubility kinetic meets or surpasses 3 µg/mL.
Not satisfied

API: above_or_equal(metric=solubility kinetic, cutoff=3 µg/mL) for item Cc1ccc(C)c(S(=O)(=O)c2c[nH]c(=S)[nH]c2=O)c1
Satisfied

# check: solubility kinetic of CC(C)C(O)(C#CCN1CCCCCC1)c1ccccc1.Cl (centres undefined) is greater than or equal to 3 µg/mL
Satisfied

Determine whether this compound has solubility kinetic no lower than 3 µg/mL: CCOC(=O)c1cc(-c2csc(-c3ccc(C(C)(C)C)cc3)n2)on1
Not satisfied

Is solubility kinetic at least 3 µg/mL? Consider CN(C)CCN=Cc1c(O)n(Cc2ccc3c(c2)OCO3)c(=O)c2ccccc12
Satisfied

Can COc1ccc(-n2c(-c3ccccc3)c[n+]3c2CCC3)cc1.[Br-] be said to have solubility kinetic at or above 3 µg/mL?
Satisfied

Determine whether this compound has solubility kinetic no lower than 3 µg/mL: O=C(CC1NC(=S)NC1=O)c1ccc(Cl)cc1 (centres undefined)
Satisfied
